assay: Plasma pharmacokinetics of 10 WDD components after gavage of WDD (LC-MS/MS, Phoenix NCA and compartment model); assay type: in vivo, SD rats; details: Sprague-Dawley, po; LTG: WDD 2.2 g/100 g by gavage, hyperlipidemia rat plasma, non-compartment, n = 6
Experimental endpoint: AUC(0-t) (ng·h/mL)

Examples with their reported AUC(0-t) follow.
1. CC1(C)[C@@H](O[C@H]2O[C@H](C(=O)O)[C@@H](O)[C@H](O)[C@H]2O[C@@H]2O[C@H](C(=O)O)[C@@H](O)[C@H](O)[C@H]2O)CC[C@]2(C)[C@H]3C(=O)C=C4[C@@H]5C[C@@](C)(C(=O)O)CC[C@]5(C)CC[C@@]4(C)[C@]3(C)CC[C@@H]12: 104
2. O=c1c(O)c(-c2ccc(O)c(O)c2)oc2cc(O)cc(O)c12: 212
3. C[n+]1cccc(C(=O)[O-])c1: 3560
4. C[C@@H]1O[C@@H](O[C@H]2[C@H](Oc3cc(O)c4c(c3)O[C@H](c3ccc(O)cc3)CC4=O)O[C@H](CO)[C@@H](O)[C@@H]2O)[C@H](O)[C@H](O)[C@H]1O: 210
5. CC1(C)[C@@H](O)CC[C@]2(C)[C@H]3C(=O)C=C4[C@@H]5C[C@@](C)(C(=O)O)CC[C@]5(C)CC[C@@]4(C)[C@]3(C)CC[C@@H]12: 8180
6. COc1ccc([C@@H]2CC(=O)c3c(O)cc(O[C@@H]4O[C@H](CO[C@@H]5O[C@@H](C)[C@H](O)[C@@H](O)[C@H]5O)[C@@H](O)[C@H](O)[C@H]4O)cc3O2)cc1O: 172

(I) O=C(/C=C/c1ccc(O)cc1)c1ccc(O)cc1O
(II) COc1ccc([C@@H]2CC(=O)c3c(O)cc(O)cc3O2)cc1O
(III) O=C1C[C@@H](c2ccc(O)cc2)Oc2cc(O)cc(O)c21
(IV) COc1ccc(-c2cc(=O)c3c(OC)c(OC)c(OC)c(OC)c3o2)cc1
Request: Hey, can you sort those compounds up there by AUC(0-t), smallest first? Reply with the item labels sorted in the order that was asked for.
Response: IV, I, III, II

###

assay: Plasma pharmacokinetics of 10 WDD components after gavage of WDD (LC-MS/MS, Phoenix NCA and compartment model); type: in vivo, SD rats; settings: Sprague-Dawley, rat, plasma, po, 6.6 g/100 g, HTG: WDD 6.6 g/100 g by gavage, hyperlipidemia rat plasma, non-compartment, n = 6
Experimental endpoint: half-life (min)

Examples with their reported half-life follow.
1. CC1(C)[C@@H](O[C@H]2O[C@H](C(=O)O)[C@@H](O)[C@H](O)[C@H]2O[C@@H]2O[C@H](C(=O)O)[C@@H](O)[C@H](O)[C@H]2O)CC[C@]2(C)[C@H]3C(=O)C=C4[C@@H]5C[C@@](C)(C(=O)O)CC[C@]5(C)CC[C@@]4(C)[C@]3(C)CC[C@@H]12: 931
2. CC1(C)[C@@H](O)CC[C@]2(C)[C@H]3C(=O)C=C4[C@@H]5C[C@@](C)(C(=O)O)CC[C@]5(C)CC[C@@]4(C)[C@]3(C)CC[C@@H]12: 361

(a) O=C(/C=C/c1ccc(O)cc1)c1ccc(O)cc1O
(b) COc1ccc(-c2cc(=O)c3c(OC)c(OC)c(OC)c(OC)c3o2)cc1
(c) C[C@@H]1O[C@@H](O[C@H]2[C@H](Oc3cc(O)c4c(c3)O[C@H](c3ccc(O)cc3)CC4=O)O[C@H](CO)[C@@H](O)[C@@H]2O)[C@H](O)[C@H](O)[C@H]1O
Request: // sort entries: half-life, high to low Reply with the item labels sorted in the order that was asked for.
Response: a, c, b
